Tested on: P388
Assay: […] antitumor activity of compound against P388 leukemia cells at a dose of 50 mg/kg
Assay type: functional, Mus musculus
Consider the following compounds; for each one, report its T/C.
One number for each entry, in %.

Worked examples follow.
GET /value?item= CN(C)C1CCN(c2nc3c(cc2F)c(=O)c(C(=O)O)cn3-c2nccs2)C1.Cl (configuration not stated) &field=T/C returns 225

GET /value?item= Cl.O=C(O)c1cn(-c2nccs2)c2nc(N3CCC(O)C3)c(F)cc2c1=O (configuration not stated) &field=T/C returns 225

Next, consider the following compound.
GET /value?item= "C[C@H]1CN(c2nc3c(cc2F)c(=O)c(C(=O)O)cn3-c2nccs2)C[C@@H]1N.Cl" &field=T/C returns 238

====

Test system: P388
Test: In vitro antitumor activity of compound against P388 leukemia cells at a dose of […] mg/kg
Format: functional, Mus musculus
Set-up: concentration or dose not given beside the values
Consider the following compounds; for each one, report its T/C.
Note to self: number, then unit, no commentary.

Worked examples follow.
GET /value?item= CN(C)C1CCN(c2nc3c(cc2F)c(=O)c(C(=O)O)cn3-c2nccs2)C1.Cl (stereo unspecified) &field=T/C returns 175%

GET /value?item= Cl.NC1CCN(c2nc3c(cc2F)c(=O)c(C(=O)O)cn3-c2nccs2)C1 (stereo unspecified) &field=T/C returns 213%

Provide T/C values for the following items, in order.
1. CO[C@H]1CN(c2nc3c(cc2F)c(=O)c(C(=O)O)cn3-c2nccs2)C[C@@H]1N.Cl (stereo in doubt; 43j)
2. C[C@H]1CN(c2nc3c(cc2F)c(=O)c(C(=O)O)cn3-c2nccs2)C[C@@H]1N.Cl
3. COc1cc([C@@H]2c3cc4c(cc3[C@@H](O[C@@H]3O[C@@H]5CO[C@@H](C)O[C@H]5[C@H](O)[C@H]3O)[C@H]3COC(=O)[C@H]23)OCO4)cc(OC)c1O [ETOPOSIDE]
4. CC1(N)CCN(c2nc3c(cc2F)c(=O)c(C(=O)O)cn3-c2nccs2)C1.Cl (stereo unspecified)

1. 238%
2. 175%
3. 250%
4. 213%

====

Consider the following compounds; for each one, report its T/C.
Test system: P388
Assay: […] antitumor activity of compound against P388 leukemia cells at a dose of 3.13 mg/kg
Format: functional, Mus musculus

GET /value?item= CN(C)C1CCN(c2nc3c(cc2F)c(=O)c(C(=O)O)cn3-c2nccs2)C1.Cl (stereo not drawn) &field=T/C returns 138%

GET /value?item= CO[C@H]1CN(c2nc3c(cc2F)c(=O)c(C(=O)O)cn3-c2nccs2)C[C@@H]1N.Cl (stereo in doubt; 43j) &field=T/C returns 138%

GET /value?item= Cl.O=C(O)c1cn(-c2nccs2)c2nc(N3CCC(O)C3)c(F)cc2c1=O (stereo not drawn) &field=T/C returns 138%

GET /value?item= COc1cc([C@@H]2c3cc4c(cc3[C@@H](O[C@@H]3O[C@@H]5CO[C@@H](C)O[C@H]5[C@H](O)[C@H]3O)[C@H]3COC(=O)[C@H]23)OCO4)cc(OC)c1O [ETOPOSIDE] &field=T/C returns 175%

GET /value?item= CC1(N)CCN(c2nc3c(cc2F)c(=O)c(C(=O)O)cn3-c2nccs2)C1.Cl (stereo not drawn) &field=T/C returns 138%

Provide T/C values for the following items, in order.
1. Cl.NC1CCN(c2nc3c(cc2F)c(=O)c(C(=O)O)cn3-c2nccs2)C1 (stereo not drawn)
2. COc1cccc2c1C(=O)c1c(O)c3c(c(O)c1C2=O)C[C@@](O)(C(=O)CO)C[C@@H]3O[C@H]1C[C@H](N)[C@H](O)[C@H](C)O1
3. C[C@H]1CN(c2nc3c(cc2F)c(=O)c(C(=O)O)cn3-c2nccs2)C[C@@H]1N.Cl

1: 150%; 2: 235%; 3: 138%
